- test.settings: buffer; pH 7.4; 200.0 µM
Label Yes when solubility kinetic is at or above 2 µg/mL; otherwise label No.

Check out these entries, answers already filled in.
[[record]]
molecule = "Cc1ccc(C(=O)NN2CCOCC2)cc1[N+](=O)[O-]"
label_class = "Yes"

[[record]]
molecule = "CC(=O)N1CCC(N(C(=O)Nc2ccc(Cl)cc2)C(C)C)CC1"
label_class = "Yes"

[[record]]
molecule = "CC(OC(=O)C1=COCCO1)C(=O)Nc1ccccc1C#N (configuration not stated)"
label_class = "Yes"

[[record]]
molecule = "COC(=O)Cc1ccc(NC(=S)Nc2cccc(C)n2)cc1"
label_class = "No"

[[record]]
molecule = "Nc1ccccc1-n1cccc1"
label_class = "Yes"


INPUT: Is reported solubility kinetic greater than or equal to 2 µg/mL here: Cc1cc(C)cc(NC(=O)c2ccc([N+](=O)[O-])o2)c1
OUTPUT: Yes

INPUT: Another molecule: Fc1ccccc1CN1CCN(c2ccc(Cl)cc2)CC1
OUTPUT: No

Cited source: PubChem BioAssay AID1996
